Cited source for all entries: patent US6541463B1

Target Entity: human type 5 17β-hydroxysteroid dehydrogenase (Homo sapiens)
Construct: screen again a human placental λgt11 cDNA to get the full length cDNA clone; expressed in transfected cells; host or cells: human embryonal kidney 293 cells (pCMV / pCMV-neo vector)
Sequence (P42330 1-323): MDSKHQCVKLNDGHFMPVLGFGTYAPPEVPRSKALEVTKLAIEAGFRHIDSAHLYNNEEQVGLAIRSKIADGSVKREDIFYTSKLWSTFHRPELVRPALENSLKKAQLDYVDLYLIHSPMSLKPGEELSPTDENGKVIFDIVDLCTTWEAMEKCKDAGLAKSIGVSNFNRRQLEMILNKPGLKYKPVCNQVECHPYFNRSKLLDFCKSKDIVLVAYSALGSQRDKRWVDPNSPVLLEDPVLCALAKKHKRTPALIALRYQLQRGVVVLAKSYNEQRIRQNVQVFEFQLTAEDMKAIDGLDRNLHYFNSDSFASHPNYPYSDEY
Procedure Text: Inhibition of human type 5 17β-HSD activity in transfected 293 cells
Format: cell-based
Measurement Parameters: Inhibition Type V 17β-HSD IC50, Table 4′
Each entry below carries its recorded IC50.
Lab book: enter the figure in nM, no units written.

>>> value("CC1(C)CC[C@@]2(CCC3C4CCc5cc(C(N)=O)ccc5C4CCC32C)OC1=O (some centres unmarked) [EM-1404]")
3.2

Enquiry: Return IC50 for the following compound: COCCOc1cc2c(cc1C#N)C1CC[C@@]3(C)C(CC[C@@]34CCC(C)(C)C(=O)O4)C1CC2 (some centres unmarked) [EM-1396]
Return: 13
